# target: human DGKζ (Homo sapiens)
# Construct: TVMV protease cleavage site (C); Hexa-His (C); made in house; host or cells: Sf9 insect cells (baculovirus, Bac-to-Bac)
# Sequence (Q13574 with tags, fused parts or gaps isoform Q13574-4): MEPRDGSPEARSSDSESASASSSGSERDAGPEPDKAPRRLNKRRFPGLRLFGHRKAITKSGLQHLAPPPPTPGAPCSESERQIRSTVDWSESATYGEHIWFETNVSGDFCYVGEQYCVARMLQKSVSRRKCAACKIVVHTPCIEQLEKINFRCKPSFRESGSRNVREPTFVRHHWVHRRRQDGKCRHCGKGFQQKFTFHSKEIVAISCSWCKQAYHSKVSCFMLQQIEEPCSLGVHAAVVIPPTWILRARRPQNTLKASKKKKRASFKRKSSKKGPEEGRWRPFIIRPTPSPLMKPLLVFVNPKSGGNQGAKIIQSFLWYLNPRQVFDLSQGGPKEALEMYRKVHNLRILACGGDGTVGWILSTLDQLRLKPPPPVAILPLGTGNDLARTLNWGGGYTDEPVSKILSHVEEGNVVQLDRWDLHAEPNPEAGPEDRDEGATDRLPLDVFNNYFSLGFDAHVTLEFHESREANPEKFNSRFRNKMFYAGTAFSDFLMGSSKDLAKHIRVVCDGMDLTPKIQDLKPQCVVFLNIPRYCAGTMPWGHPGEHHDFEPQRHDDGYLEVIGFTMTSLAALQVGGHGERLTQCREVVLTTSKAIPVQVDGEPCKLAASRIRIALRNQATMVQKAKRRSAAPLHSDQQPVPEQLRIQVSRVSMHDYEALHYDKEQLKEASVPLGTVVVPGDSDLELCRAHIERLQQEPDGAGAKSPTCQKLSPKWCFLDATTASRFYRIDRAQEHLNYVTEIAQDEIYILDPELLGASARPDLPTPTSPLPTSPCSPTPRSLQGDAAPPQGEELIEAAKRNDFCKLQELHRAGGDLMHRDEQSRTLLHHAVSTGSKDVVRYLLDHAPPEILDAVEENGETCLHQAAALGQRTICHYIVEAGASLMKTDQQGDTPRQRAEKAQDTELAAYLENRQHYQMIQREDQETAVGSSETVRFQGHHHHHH
# protocol-summary: DGKζ LIPGLO assay (extruded liposome substrate), in vitro DGK inhibition
# Assay type: biochemical
# assay-setup: DGKζ liposome (LIPGLO) assay; read-out: DGKz LIPGLO IC50
pIC50: −log10 of the molar value.
property: pIC50

[a] C[C@@H]1CN(c2c(C#N)c(=O)n(C)c3ccc(C#N)nc23)[C@@H](C)CN1C(c1ccc(F)cc1)c1ccc(C(F)(F)F)cn1 (single isomer, unassigned) [Example 837]
[b] C[C@@H]1CN(c2c(C#N)c(=O)n(C)c3ccc(C#N)nc23)CCN1C(c1ccc(F)cc1)c1ccc(C#N)cc1 (single isomer, unassigned) [Example 871]
*Q* Min pIC50? a | b Returns: label corresponding to the selected item.
*A* a

[P] C[C@@H]1CN(c2cc(=O)n(C)c3ccc(C#N)nc23)[C@@H](C)CN1C(c1ccc(F)cc1)c1nnc(C2CC2)o1 (single isomer, unassigned)
[Q] C[C@@H]1CN(c2c(C#N)c(=O)n(C)c3ccc(C#N)nc23)[C@@H](C)CN1C(c1ccccc1)c1cc(F)cc(F)c1 (single isomer, unassigned) [Example 813]
*Q* Min pIC50? P | Q Returns: label corresponding to the selected item.
*A* Q
(Q: 5.43, P: 6.12)

[I] C[C@@H]1CN(c2c(C#N)c(=O)n(C)c3ccc(C#N)nc23)CCN1C(c1ccc(F)cc1)c1cccc2c1OC(C)(C)C2 (single isomer, unassigned) [Example 935]
[II] C[C@@H]1CN(c2c(C#N)c(=O)n(C)c3ccc(C#N)nc23)CCN1C(c1ccc(Cl)cc1)c1ccc(F)cn1 (single isomer, unassigned) [Example 900]
*Q* Min pIC50? I | II Returns: label corresponding to the selected item.
*A* I
(I: 5.74, II: 6.10)

[P] CCc1noc(C(c2ccc(F)cc2)N2C[C@H](C)N(c3cc(=O)n(C)c4ccc(C#N)nc34)C[C@H]2C)n1 (single isomer, unassigned) [Example 754]
[Q] C[C@@H]1CN(c2c(C#N)c(=O)n(C)c3ccc(C#N)nc23)CCN1Cc1ccc(F)cc1Cl
*Q* Thinking about recorded pIC50 values, which is higher, P or Q ? Returns: label corresponding to the selected item.
*A* P

====

# target: human DGKα (Homo sapiens)
# Construct: TVMV protease cleavage site (C); Hexa-His (C); made in house; host or cells: Sf9 insect cells (baculovirus, Bac-to-Bac)
# Sequence (P23743 with tags, fused parts or gaps): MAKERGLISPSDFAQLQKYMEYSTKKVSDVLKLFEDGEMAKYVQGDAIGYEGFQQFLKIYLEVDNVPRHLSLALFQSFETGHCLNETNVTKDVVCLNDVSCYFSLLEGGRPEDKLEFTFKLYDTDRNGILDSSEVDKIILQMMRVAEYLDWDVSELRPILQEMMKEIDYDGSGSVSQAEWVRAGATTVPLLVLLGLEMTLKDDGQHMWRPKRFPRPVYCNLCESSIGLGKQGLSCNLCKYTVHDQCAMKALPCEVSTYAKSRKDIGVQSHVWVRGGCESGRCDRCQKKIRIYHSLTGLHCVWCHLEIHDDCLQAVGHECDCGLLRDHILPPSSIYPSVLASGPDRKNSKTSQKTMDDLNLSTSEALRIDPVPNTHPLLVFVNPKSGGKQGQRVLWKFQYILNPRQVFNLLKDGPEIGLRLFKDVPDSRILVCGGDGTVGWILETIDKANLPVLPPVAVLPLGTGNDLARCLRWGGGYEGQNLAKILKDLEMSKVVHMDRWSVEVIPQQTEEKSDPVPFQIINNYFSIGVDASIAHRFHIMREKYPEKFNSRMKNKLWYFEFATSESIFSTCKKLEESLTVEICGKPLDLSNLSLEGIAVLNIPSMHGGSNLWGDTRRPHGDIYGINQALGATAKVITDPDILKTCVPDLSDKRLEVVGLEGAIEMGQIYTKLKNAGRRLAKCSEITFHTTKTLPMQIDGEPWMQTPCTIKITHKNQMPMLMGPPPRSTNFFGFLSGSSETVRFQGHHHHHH
# protocol-summary: DGKα LIPGLO assay (extruded liposome substrate), in vitro DGK inhibition
# Format: biochemical
# assay-setup: DGKα liposome (LIPGLO) assay; read-out: DGKa LIPGLO IC50
property: IC50 (nM)

Known results for compounds:
Just so you know, measured IC50 for "C[C@@H]1CN(c2c(C#N)c(=O)n(C)c3ccc(C#N)nc23)CCN1Cc1ccc(Cl)c(Cl)c1" came out at 4100

Just so you know, measured IC50 for COC(=O)c1ccc(C(C)N2C[C@H](C)N(c3c(C#N)c(=O)n(C)c4ccc(C#N)nc34)C[C@H]2C)cc1 (single isomer, unassigned) [Example 793] came out at 6900

[I] COc1ccc(C(C)N2C[C@H](C)N(c3c(C#N)c(=O)n(C)c4ccc(C#N)nc34)C[C@H]2C)nc1 (single isomer, unassigned) [Example 800]
[II] C[C@@H]1CN(c2c(C#N)c(=O)n(C)c3ccc(C#N)nc23)[C@@H](C)CN1C(c1ccc(F)cc1)c1cccc(C(F)(F)F)n1 (single isomer, unassigned) [Example 844]
*Q* Thinking about recorded IC50 values, which is higher, I or II ? Returns: label corresponding to the selected item.
*A* II
(II: 100000 nM, I: 380 nM)

[I] Cc1ccc(CN2CCN(c3c(C#N)c(=O)n(C)c4ccc(C#N)nc34)C[C@H]2C)cc1
[II] CCc1ccccc1C(c1ccc(F)cc1)N1CCN(c2c(C#N)c(=O)n(C)c3ccc(C#N)nc23)C[C@H]1C (some centres unmarked) [Example 877]
[III] C[C@@H]1CN(c2cc(=O)n(C)c3ccc(C#N)nc23)[C@@H](C)CN1C(c1ccc(F)cc1)c1nc(C2CCN(C)CC2)no1 (single isomer, unassigned)
[IV] C[C@@H]1CN(c2c(C#N)c(=O)n(C)c3ccc(C#N)nc23)[C@@H](C)CN1C(c1ccc(Cl)cc1)c1ccc(F)cn1 (single isomer, unassigned) [Example 830]
*Q* Could you please sort these 4 entries by IC50 from high to low? Give the order by naming the labels one after another as requested.
*A* II, IV, III, I
(II: 5100 nM, IV: 1500 nM, III: 1000 nM, I: 420 nM)
